Target: HiBiT tagged Wee1 (Homo sapiens)
Sequence (P30291 whole entry): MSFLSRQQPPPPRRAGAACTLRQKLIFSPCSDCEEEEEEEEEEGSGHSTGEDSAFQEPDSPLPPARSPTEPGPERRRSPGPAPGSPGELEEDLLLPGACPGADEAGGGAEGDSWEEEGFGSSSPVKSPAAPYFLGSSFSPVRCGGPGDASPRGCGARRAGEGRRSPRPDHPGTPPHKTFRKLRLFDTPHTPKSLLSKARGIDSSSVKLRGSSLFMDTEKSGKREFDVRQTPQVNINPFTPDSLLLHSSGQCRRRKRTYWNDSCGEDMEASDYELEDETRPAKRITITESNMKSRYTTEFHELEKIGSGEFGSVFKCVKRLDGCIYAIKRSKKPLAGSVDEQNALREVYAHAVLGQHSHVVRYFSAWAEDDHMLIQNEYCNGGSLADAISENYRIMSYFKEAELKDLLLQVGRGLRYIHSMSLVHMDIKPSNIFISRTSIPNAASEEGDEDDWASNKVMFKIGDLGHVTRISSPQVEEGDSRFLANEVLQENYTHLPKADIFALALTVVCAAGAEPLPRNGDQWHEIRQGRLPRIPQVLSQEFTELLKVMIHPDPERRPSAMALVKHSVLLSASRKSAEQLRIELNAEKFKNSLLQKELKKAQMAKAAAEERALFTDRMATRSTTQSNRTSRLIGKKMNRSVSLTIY
Test: Wee1 protein degradation assay (HiBiT assay)
Assay type: cell-based
Conditions: engineered HT-1080 cells, 20 hours; maximum percentage of Wee1 degradation; read-out: HiBiT Wee1: Dmax
The following molecules are listed with their measured Dmax values.

Sample answers from the record:
C=CCn1c(=O)c2cnc(Nc3ccc(N4CCN(CC5CCN(c6cccc7c(N8CCC(=O)NC8=O)nn(C)c67)CC5)CC4)cc3)nc2n1-c1cccc(C(C)(C)O)n1 [Compound 143]; 50 to 75%
C=CCn1c(=O)c2cnc(Nc3ccc(N4CCC(CN5CCC(c6ccc7c(N8CCC(=O)NC8=O)nn(C)c7c6)C(F)(F)C5)CC4)cc3)nc2n1-c1ccc2c(n1)[C@@](O)(CC)CC2 (some centres unmarked) [Compound 160]; 50 to 75%
C=CCn1c(=O)c2cnc(Nc3ccc(N4CCN(CC5CCN(c6cc7c(cc6F)c(N6CCC(=O)NC6=O)nn7C)CC5)CC4)cc3)nc2n1-c1ccc2c(n1)[C@@](O)(CC)CC2 [Compound 161]; > 75%

Recorded Dmax of C=CCn1c(=O)c2cnc(Nc3ccc(N4CCN(CC5CCN(c6ccc(NC7CCC(=O)NC7=O)cc6F)CC5)CC4)nc3)nc2n1-c1ccc2c(n1)[C@@](O)(CC)CC2 (some centres unmarked) [Compound 187] , please.
> 75%

// repeat for C=CCn1c(=O)c2cnc(Nc3ccc(N4CCC(CN5CCN(c6ccc(NC7CCC(=O)NC7=O)cc6F)CC5)CC4)cc3)nc2n1-c1cccc(C(C)(C)O)n1 (centres unmarked) [Compound 71] and report
> 75%

Next up: O=C1CCC(Nc2ccc(N3CCC(CN4CCN(c5ccc(Nc6ncc7c(=O)n(-c8c(Cl)cccc8Cl)c8nccn8c7n6)cc5)CC4)CC3)c(F)c2)C(=O)N1 (centres unmarked) [Compound 83]
> 75%

Queued: C=CCn1c(=O)c2cnc(Nc3ccc(N4CCN(CC5CCN(c6cc7c(cc6F)c(N6CCC(=O)NC6=O)nn7C)CC5)CC4)nc3)nc2n1-c1ccc2c(n1)[C@@](O)(CC)CC2 [Compound 194]
> 75%

Let us now turn to O=C1CCC(N2C(=O)c3ccc(N4CCC(CCN5CCC(c6ccc(Nc7ncc8c(=O)n(-c9c(Cl)cccc9Cl)c9nccn9c8n7)cc6)CC5)CC4)cc3C2=O)C(=O)N1 (centres unmarked) [Compound 15]
50 to 75%

Further, for C=CCn1c(=O)c2cnc(Nc3ccc(N4CCN(CC5CN(c6ccc(NC7CCC(=O)NC7=O)cc6F)C5)CC4)cc3)nc2n1-c1cccc(C(C)(C)O)n1 (centres unmarked) [Compound 122] ?
> 75%

Consider next the molecule C=CCn1c(=O)c2cnc(Nc3ccc(N4CCN(CC5CCN(c6cc7c(cc6F)c(N6CCC(=O)NC6=O)nn7C)CC5)CC4)cc3)nc2n1-c1ccc2c(n1)[C@](C)(O)CC2 [Compound 196] in the same way.
> 75%

C=CCn1c(=O)c2cnc(Nc3ccc(N4CCC(CN5CCN(c6ccc(NC7CCC(=O)NC7=O)cc6F)CC5)CC4)cc3)nc2n1-c1ccc2c(n1)[C@@](O)(CC)CC2 (some centres unmarked) [Compound 119] , same question.
> 75%

* * *

Target: UniProt P30291
Test: Wee1 protein degradation assay (HiBiT assay)
Assay type: cell-based
Settings: engineered HT-1080 cells, 20 hours; maximum percentage of Wee1 degradation; read-out: HiBiT Wee1: Dmax
# key: entry, value: Dmax

Use these answered entries as a reference point.
C=CCn1c(=O)c2cnc(Nc3ccc(N4CCN(CC5CCN(c6ccc(NC7CCC(=O)NC7=O)cc6F)CC5)[C@H](C)C4)cc3)nc2n1-c1ccc2c(n1)[C@@](O)(CC)CC2 (stereo partly drawn) [Compound 163]; > 75%
C=CCn1c(=O)c2cnc(Nc3ccc(N4CCC(CN5CCN(c6cccc7c(N8CCC(=O)NC8=O)nn(C)c67)CC5)CC4)cc3)nc2n1-c1cccc(C(C)(C)O)n1 [Compound 118]; 50 to 75%
C=CCn1c(=O)c2cnc(Nc3ccc(N4CCN(CC5(F)CCN(c6ccc(NC7CCC(=O)NC7=O)cc6F)CC5)CC4)cc3)nc2n1-c1ccc2c(n1)[C@@](O)(CC)CC2 (stereo partly drawn) [Compound 166]; > 75%

Look at this compound and give its reported Dmax. C=CCn1c(=O)c2cnc(Nc3ccc(N4CCN(C[C@@H]5CCN(c6ccc(NC7CCC(=O)NC7=O)cc6F)C5)CC4)cc3)nc2n1-c1cccc(C(C)(C)O)n1 (stereo partly drawn) [Compound 139]
> 75%

Param item: C=CCn1c(=O)c2cnc(Nc3ccc(N4CCC(CN5CCC(c6ccc7c(C8CCC(=O)NC8=O)nn(C)c7c6)CC5)CC4)cc3)nc2n1-c1cccc(C(C)(C)O)n1 (stereo not drawn) [Compound 96]
50 to 75%

Entry C=CCn1c(=O)c2cnc(Nc3ccc(C4CCN(C[C@@H]5CCN(c6ccc7c(c6)C(=O)N(C6CCC(=O)NC6=O)C7=O)C5)CC4)cc3)nc2n1-c1cccc(C(C)(C)O)n1 (stereo partly drawn) [Compound 37] please
50 to 75%

What do you get for C=CCn1c(=O)c2cnc(Nc3ccc(N4CCN(CC5CCN(c6ncc(NC7CCC(=O)NC7=O)cc6F)CC5)CC4)cc3)nc2n1-c1ccc2c(n1)[C@@](O)(CC)CC2 (stereo partly drawn) [Compound 180] ?
> 75%

Note, next up: C=CCn1c(=O)c2cnc(Nc3ccc(N4CCN(CC5CCN(c6ncc(NC7CCC(=O)NC7=O)cc6F)CC5)CC4)nc3)nc2n1-c1ccc2c(n1)[C@@](O)(CC)CC2 (stereo partly drawn) [Compound 195]
> 75%

What about O=C1CCC(N2C(=O)c3ccc(N4CC(N5CCC(c6ccc(Nc7ncc8c(=O)n(-c9c(Cl)cccc9Cl)c9nccn9c8n7)cc6)CC5)C4)cc3C2=O)C(=O)N1 (stereo not drawn) [Compound 42] ?
50 to 75%

And C=CCn1c(=O)c2cnc(Nc3ccc(N4CCN(CC5CCN(c6ncc(NC7CCC(=O)NC7=O)cc6F)CC5)[C@@H](C)C4)cc3)nc2n1-c1ccc2c(n1)[C@@](O)(CC)CC2 (stereo partly drawn) [Compound 192] ?
> 75%

Next: C=CCn1c(=O)c2cnc(Nc3ccc(N4CCC(N5CC6(CN(c7ccc8c(N9CCC(=O)NC9=O)nn(C)c8c7)C6)C5)C(F)(F)C4)cc3)nc2n1-c1ccc2c(n1)[C@@](O)(CC)CC2 (stereo partly drawn) [Compound 178]
50 to 75%

And what about the compound C=CCn1c(=O)c2cnc(Nc3ccc(N4CCN(CC5CCN(c6ccc(NC7CCC(=O)NC7=O)cc6F)CC5)CC4)cc3)nc2n1-c1cccc(C(C)(C)C)n1 (stereo not drawn) [Compound 204] ?
> 75%

Here is the next compound: C=CCn1c(=O)c2cnc(Nc3ccc(N4CCN(CC5CCN(c6ccc(NC7CCC(=O)NC7=O)cc6F)CC5)CC4)cc3)nc2n1-c1ccc2c(n1)[C@](C)(O)CC2 (stereo partly drawn) [Compound 112]
> 75%

Now give it for C=CCn1c(=O)c2cnc(Nc3ccc(N4CCN(CCCCc5ccc6c(c5)n(C)c(=O)n6C5CCC(=O)NC5=O)CC4)cc3)nc2n1-c1cccc(C(C)(C)O)n1 (stereo not drawn) [Compound 47] too.
50 to 75%

Also check C=CCn1c(=O)c2cnc(Nc3ccc(N4CCN(C5CCN(c6ccc(NC7CCC(=O)NC7=O)cc6F)CC5)[C@H](C)C4)cc3)nc2n1-c1ccc2c(n1)[C@@](O)(CC)CC2 (stereo partly drawn) [Compound 186]
> 75%

Then what about the compound C=CCn1c(=O)c2cnc(Nc3ccc4c(c3)CN(CCCCc3cccc5c3CN(C3CCC(=O)NC3=O)C5=O)CC4)nc2n1-c1cccc(C(C)(C)O)n1 (stereo not drawn) [Compound 49] ?
< 50%

And for C=CCn1c(=O)c2cnc(Nc3ccc(C4CCN(C5CCN(c6cccc7c6n(C)c(=O)n7C6CCC(=O)NC6=O)CC5)CC4)cc3)nc2n1-c1cccc(C(C)(C)O)n1 (stereo not drawn) [Compound 99] ?
50 to 75%

Please give the result for Cc1cc(Nc2ncc3c(n2)N(C)CN(c2c(Cl)cccc2Cl)C3=O)ccc1N1CCC(CN2CCN(c3cccc4c3C(=O)N(C3CCC(=O)NC3=O)C4=O)CC2)CC1 (stereo not drawn) [Compound 31] too.
< 50%

# repeat for C=CCn1c(=O)c2cnc(Nc3ccc(N4CCN(CC5CCN(c6ccc(NC7CCC(=O)NC7=O)cc6F)CC5)CC4)c(C)c3)nc2n1-c1ccc2c(n1)[C@](C)(O)CC2 (stereo partly drawn) [Compound 130]
> 75%

Another compound to look at: C=CCn1c(=O)c2cnc(Nc3ccc(N4C[C@@H](C)N(CC5CCN(c6ccc(NC7CCC(=O)NC7=O)cc6F)CC5)[C@@H](C)C4)cc3)nc2n1-c1ccc2c(n1)[C@@](O)(CC)CC2 (stereo partly drawn) [Compound 169]
> 75%

Also, C=CCn1c(=O)c2cnc(Nc3ccc(N4CCN(CCNc5ccc6c(c5)C(=O)N(C5CCC(=O)NC5=O)C6=O)CC4)cc3)nc2n1-c1cccc(C(C)(C)O)n1 (stereo not drawn) [Compound 11] please.
50 to 75%
